From: patent US20230235040A1

binders and their reported IC50, HEK-Blue IL-36R SEAP reporter assay
# TEST TARGET: T1, hu-IL-36α (human IL-36α, N-terminally truncated active form K6-F158) (human, UniProt Q9UHA7 6-158)
# T1 sequence: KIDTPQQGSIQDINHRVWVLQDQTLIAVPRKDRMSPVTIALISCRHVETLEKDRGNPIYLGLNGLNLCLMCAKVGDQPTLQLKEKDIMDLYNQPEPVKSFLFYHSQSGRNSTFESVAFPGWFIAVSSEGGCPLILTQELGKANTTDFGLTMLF
# EXPERIMENT SUMMARY: cell-based or functional assay
A number alone suffices; assume nM.

// below: answered binders
BINDER	EXPERIMENTAL RESULT
mAb3.0 recombinant human IgG1 (antibody, V domains shown) VH: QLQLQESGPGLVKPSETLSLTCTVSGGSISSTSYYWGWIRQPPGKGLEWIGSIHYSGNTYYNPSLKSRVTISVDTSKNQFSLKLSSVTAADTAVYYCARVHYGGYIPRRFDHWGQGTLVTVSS VL: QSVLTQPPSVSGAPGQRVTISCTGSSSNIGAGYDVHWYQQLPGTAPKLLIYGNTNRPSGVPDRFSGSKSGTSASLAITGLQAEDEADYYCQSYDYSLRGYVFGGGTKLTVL	90
mAb4.0 recombinant human IgG1 (antibody, V domains shown) VH: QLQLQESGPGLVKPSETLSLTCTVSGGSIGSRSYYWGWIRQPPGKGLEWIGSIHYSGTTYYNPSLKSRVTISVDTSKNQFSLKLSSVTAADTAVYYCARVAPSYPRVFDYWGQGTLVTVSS VL: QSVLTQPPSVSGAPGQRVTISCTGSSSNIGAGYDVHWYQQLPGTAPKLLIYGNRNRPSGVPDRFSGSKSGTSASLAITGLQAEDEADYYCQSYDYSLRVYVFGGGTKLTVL	16

Query binder follows.
Item mAb2.0 recombinant human IgG1 (antibody, V domains shown) VH: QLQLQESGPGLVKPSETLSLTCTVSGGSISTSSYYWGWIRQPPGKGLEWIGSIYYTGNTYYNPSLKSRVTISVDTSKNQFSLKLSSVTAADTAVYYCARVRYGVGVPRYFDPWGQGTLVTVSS VL: QSVLTQPPSVSGAPGQRVTISCTGSSSNIGAHYDVHWYQQLPGTAPKLLIYGNDNRPSGVPDRFSGSKSGTSASLAITGLQAEDEADYYCQSYDYSLSGYVFGGGTKLTVLG has what recorded IC50, HEK-Blue IL-36R SEAP reporter assay?
5.7
